Tested on: human APOE RNA
Experiment: Activity in APOE C57BL/6NTac-Apoeem7250 knock-in mice, single ICV bolus, 8 weeks (Example 11)
Assay type: in vivo
Details: spinal cord; single ICV bolus 300 μg; 8 weeks post treatment; normalized to mouse Ppia
Strand notation (5' to 3'): a small letter for the sugar, then the base; units joined by * are phosphorothioate-linked, units joined directly phosphodiester-linked; [ ] holds rarer units or linkages, { } end groups; capitals alone tell only the bases. [ms] = mesyl phosphoramidate linkage; e = 2'-O-(2-methoxyethyl) (MOE); [5mC] = 5-methylcytosine; d = 2'-deoxy (DNA)
Quick reference: APOE RNA (% control) Spinal Cord of the listed items.
Hi! Could you send only the number? It should be in % control, unit omitted.

>>> endpoint_result("1693041: 5-10-5 MOE gapmer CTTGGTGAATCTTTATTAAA, linkages ssossszzzssssssosss (antisense e[5mC]*eT*eTeG*eG*dT*dG[ms]dA[ms]dA[ms]dT*d[5mC]*dT*dT*dT*dA*eTeT*eA*eA*eA) [compound 1693041]")
74

Attention now shifts to the item below.
q: # input substance: 1693045: 5-10-5 MOE gapmer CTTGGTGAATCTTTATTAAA, linkages ssssozzzzssssssssss (antisense e[5mC]*eT*eT*eG*eGdT[ms]dG[ms]dA[ms]dA[ms]dT*d[5mC]*dT*dT*dT*dA*eT*eT*eA*eA*eA) [compound 1693045] ; wanted: its APOE RNA (% control) Spinal Cord
a: 86

---

System: human APOE RNA
Assay: Dose-dependent inhibition of human APOE RNA in HepG2 cells, electroporation, 24 hours (Example 6)
Assay type: cell-based
Conditions: 20,000 nM
Strand notation (5' to 3'): a small letter for the sugar, then the base; units joined by * are phosphorothioate-linked, units joined directly phosphodiester-linked; [ ] holds rarer units or linkages, { } end groups; capitals alone tell only the bases. [ms] = mesyl phosphoramidate linkage; e = 2'-O-(2-methoxyethyl) (MOE); k = constrained ethyl (cEt); [5mC] = 5-methylcytosine; d = 2'-deoxy (DNA)
property label: APOE RNA (% UTC)
Hi! Could you send only the number? It should be in % UTC, unit omitted.

>>> endpoint_result("1736524: 6-10-4 MOE gapmer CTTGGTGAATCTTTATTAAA, linkages sssooozzssssssssoss (e[5mC]*eT*eT*eGeGeTdG[ms]dA[ms]dA*dT*d[5mC]*dT*dT*dT*dA*dT*eTeA*eA*eA) [compound 1736524]")
17
>>> endpoint_result("1736522: 6-10-4 MOE gapmer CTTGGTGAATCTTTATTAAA, linkages sooosszzssssssssoss (e[5mC]*eTeTeGeG*eT*dG[ms]dA[ms]dA*dT*d[5mC]*dT*dT*dT*dA*dT*eTeA*eA*eA) [compound 1736522]")
43

Attention now shifts to the item below.
q: # input substance: 1736517 (e[5mC]*eTeTeG*kG*kT*dG[ms]dA[ms]dA[ms]dT*d[5mC]*dT*dT*dT*dA[ms]dT*eT*eA*eA*eA; antisense) [Compound 1736517] ; wanted: its APOE RNA (% UTC)
a: 10

---

Quick reference: APOE RNA (% UTC) of the listed items.
Test system: human APOE RNA
Experiment: Dose-dependent inhibition of human APOE RNA in HepG2 cells, electroporation, 50,000 cells per well, RT-PCR normalized to GAPDH (Example 4, Tables 8-10)
Assay type: cell-based
Settings: 512 nM; HepG2, electroporation, 16-hour treatment
Strand notation (5' to 3'): a small letter for the sugar, then the base; units joined by * are phosphorothioate-linked, units joined directly phosphodiester-linked; [ ] holds rarer units or linkages, { } end groups; capitals alone tell only the bases. [ms] = mesyl phosphoramidate linkage; e = 2'-O-(2-methoxyethyl) (MOE); k = constrained ethyl (cEt); [5mC] = 5-methylcytosine; d = 2'-deoxy (DNA)
Hi! Could you send only the number? It should be in % UTC, unit omitted.

>>> endpoint_result("Compound No. 1517891: comparator of WO 2022/066956; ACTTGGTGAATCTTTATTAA, sugar eeeeeddddddddddeeeee, linkages sooosssssssssssooss (MOE gapmer, mixed PS/PO linkages, chemistry not fully specified) [reference compound]")
48

Attention now shifts to the item below.
q: # input substance: 1757575 (eA*e[5mC]eTeT*kG*kG*dT*dG[ms]dA[ms]dA[ms]dT*d[5mC]*dT*dT*dT*dA[ms]kT*eT*eA*eA; antisense) [Compound 1757575] ; wanted: its APOE RNA (% UTC)
a: 51

---

Quick reference: APOE RNA (% UTC) of the listed items.
Tested on: human APOE RNA
Assay: Dose-dependent inhibition of human APOE RNA in HepG2 cells, electroporation, 50,000 cells per well, RT-PCR normalized to GAPDH (Example 4, Tables 8-10)
Type: cell-based
Conditions: 82 nM; HepG2, electroporation, 24-hour treatment
Strand notation (5' to 3'): a small letter for the sugar, then the base; units joined by * are phosphorothioate-linked, units joined directly phosphodiester-linked; [ ] holds rarer units or linkages, { } end groups; capitals alone tell only the bases. [ms] = mesyl phosphoramidate linkage; k = constrained ethyl (cEt); [5mC] = 5-methylcytosine; d = 2'-deoxy (DNA)
Hi! Could you send only the number? It should be in % UTC, unit omitted.

>>> endpoint_result("1746802 (k[5mC]*dT[ms]dT[ms]dG[ms]kG*kT*dG[ms]dA[ms]dA[ms]dT*d[5mC]*dT*dT*dT*dA[ms]dT*kT*dA[ms]kA*kA; antisense) [Compound 1746802]")
72
>>> endpoint_result("1746792 (k[5mC]*dT[ms]dT[ms]kG*dG[ms]kT*dG[ms]dA[ms]dA[ms]dT*d[5mC]*dT*dT*dT*dA[ms]dT*kT*kA*dA[ms]kA; antisense) [Compound 1746792]")
87
>>> endpoint_result("1746793 (k[5mC]*dT[ms]dT[ms]dG[ms]kG*kT*dG[ms]dA[ms]dA[ms]dT*d[5mC]*dT*dT*dT*dA[ms]dT*kT*kA*dA[ms]kA; antisense) [Compound 1746793]")
96
>>> endpoint_result("1746789 (k[5mC]*dT[ms]kT*dG[ms]kG*dT[ms]dG[ms]dA[ms]dA[ms]dT*d[5mC]*dT*dT*dT*dA[ms]dT*kT*kA*dA[ms]kA; antisense) [Compound 1746789]")
102

q: # input substance: 1746794 (k[5mC]*kT*kT*dG[ms]dG[ms]dT[ms]dG[ms]dA[ms]dA[ms]dT*d[5mC]*dT*dT*dT*dA[ms]dT*kT*dA[ms]kA*kA; antisense) [Compound 1746794] ; wanted: its APOE RNA (% UTC)
a: 91

q: And for 1747053 (k[5mC]*dT[ms]dT[ms]kG*kG*kT*dG[ms]dA[ms]dA[ms]dT*d[5mC]*dT*dT*dT*dA[ms]dT*kT*dA[ms]dA[ms]kA; antisense) [Compound 1747053] ?
a: 107

q: And for 1747050 (k[5mC]*kT*kT*dG[ms]dG[ms]kT*dG[ms]dA[ms]dA[ms]dT*d[5mC]*dT*dT*dT*dA[ms]dT*kT*dA[ms]dA[ms]kA; antisense) [Compound 1747050] ?
a: 111

q: And for 1746785 (k[5mC]*kT*dT[ms]kG*dG[ms]dT[ms]dG[ms]dA[ms]dA[ms]dT*d[5mC]*dT*dT*dT*dA[ms]dT*kT*kA*dA[ms]kA; antisense) [Compound 1746785] ?
a: 84

q: And for 1746805 (k[5mC]*kT*dT[ms]kG*dG[ms]dT[ms]dG[ms]dA[ms]dA[ms]dT*d[5mC]*dT*dT*dT*dA[ms]dT*dT[ms]kA*kA*kA; antisense) [Compound 1746805] ?
a: 94

q: And for 1746786 (k[5mC]*kT*dT[ms]dG[ms]kG*dT[ms]dG[ms]dA[ms]dA[ms]dT*d[5mC]*dT*dT*dT*dA[ms]dT*kT*kA*dA[ms]kA; antisense) [Compound 1746786] ?
a: 75

---

Test system: human APOE RNA
Experiment: Potency (dose response, ED50) in APOE C57BL/6NTac-Apoeem7250 knock-in mice, 8 weeks (Example 15)
Format: in vivo
Conditions: cortex, ICV dose 100 μg
Strand notation (5' to 3'): a small letter for the sugar, then the base; units joined by * are phosphorothioate-linked, units joined directly phosphodiester-linked; [ ] holds rarer units or linkages, { } end groups; capitals alone tell only the bases. [ms] = mesyl phosphoramidate linkage; e = 2'-O-(2-methoxyethyl) (MOE); k = constrained ethyl (cEt); [5mC] = 5-methylcytosine; d = 2'-deoxy (DNA)
Quick reference: APOE RNA (% control) Cortex of the listed items.
Hi! Could you send only the number? It should be in % control, unit omitted.

Here is how some substances turned out for APOE RNA (% control) Cortex.
>>> endpoint_result("Aks^mCeoTeoTesGesGksTdsGdzAdzAdzTds^mCdsTdsTdsTdsAdzTksTksAesAe (kA*e[5mC]eTeT*eG*kG*dT*dG[ms]dA[ms]dA[ms]dT*d[5mC]*dT*dT*dT*dA[ms]kT*kT*eA*eA) [Compound No. 1809635]")
62
>>> endpoint_result("^mCksTksTksGdzGdzTdzGdzAdzAdzTds^mCdsTdsTdsTdsAdsTdsTksAksAdzAk (antisense k[5mC]*kT*kT*dG[ms]dG[ms]dT[ms]dG[ms]dA[ms]dA[ms]dT*d[5mC]*dT*dT*dT*dA*dT*kT*kA*dA[ms]kA) [Compound No. 1785602]")
57

Attention now shifts to the item below.
q: # input substance: 1785599: modified oligonucleotide complementary to human APOE RNA (k[5mC]*kT*kT*dG[ms]dG[ms]dT[ms]dG[ms]dA[ms]dA[ms]dT[ms]d[5mC]*dT*dT*dT*dA*dT*kT*kA*dA[ms]kA; antisense) [compound 1785599] ; wanted: its APOE RNA (% control) Cortex
a: 56
